Hey, just so you know, these numbers are from patent US11718618B2.

Assay: Stability of compounds in human liver microsomes
Assay type: in vitro ADME
Conditions: scaled from HLM half-life (Obach method), human
RECORDED_ENDPOINT: HLM Predicted Systemic Clearance

Use the examples below as a reference point.
> print(dat)
                                   compound           result
1  COc1cc2c(cc1OCC(C)(C)O)CCN1C[C@@H](CC(C)(C)C)[C@H](O)C[C@H]21 [Compound 4-47]  ≤2.59 mL/min/kg
2  COc1cc2c(cc1OCC1CCN(C#N)CC1)CCN1C[C@@H](CC(C)(C)C)[C@H](O)C[C@H]21 [Compound 4-73]   6.88 mL/min/kg
3  COc1cc2c(cc1OCCCF)CCN1C[C@@H](CC(C)(C)C)[C@H](O)C[C@H]21 [Compound 4-28]  12.28 mL/min/kg

Now for a further compound.
Fill blank: measured HLM Predicted Systemic Clearance of the compound COc1cc2c(cc1O[C@@H]1CCOC1)CCN1C[C@@H](CC(C)(C)C)[C@H](O)C[C@H]21 [Compound 4-53] is ____. 6 mL/min/kg
